- Tested on: MV4-11
- Set-up: species or system AML cell lines (8); Primary HTS, single concentration about 10 uM, Cell Titer Glo viability; log10 luminescence, per cent inhibition relative to cycloheximide control
- assay context: 72 h, relative to cycloheximide control, log10 luminescence; inhibitor
The entries below are paired with their reported MV4-11 %inh.
Provide only the numeric value, understood in %.

| compound | unit abbrev | measured number |
| --- | --- | --- |
| COc1cccc(-n2cnc3c(N/N=C/c4ccncc4)ncnc32)c1 [SJ000573055-1, U17791/62/2] | % | 22.16 |
| Cc1[nH]nc2c1N=C(c1ccccc1Cl)c1cc([N+](=O)[O-])ccc1N2 [SJ000581173-1] | % | 86.62 |
| NC(=O)c1cc(-c2ccc(Cl)cc2)cc(-c2ccc(S(N)(=O)=O)cc2)c1N [SJ000773162-1, IKK INHIBITOR XII] | % | 6.438 |
| CCCCCCCCCCCCCCSCC(=O)O [SJ000288209-4, TETRADECYLTHIOACETIC ACID] | % | -0.2387 |
| CS(=O)(=O)CCNCc1ccc(-c2ccc3ncnc(Nc4ccc(OCc5cccc(C(F)(F)F)c5)cc4)c3c2)o1 [SJ000573107-1, U14801/49/2] | % | 64.67 |

The value of MV4-11 %inh measured for the compound NCC1(CC(=O)O)CCCCC1 [SJ000287210-5, GABAPENTIN] turned out to be 5.813

The value of MV4-11 %inh measured for the compound NC(=O)c1sc(-n2cnc3ccccc32)cc1OCc1ccccc1Br [SJ000573032-1, U22538/78/1] turned out to be 0.1879

The value of MV4-11 %inh measured for the compound CNCCCn1cc(C2=C(c3cn(C)c4ccccc34)C(=O)NC2=O)c2ccccc21 [SJ000581176-1] turned out to be 44.21

---

The entries below are paired with their reported CMK %inh.
- Tested on: CMK
- Set-up: species or system AML cell lines (8); Primary HTS, single concentration about 10 uM, Cell Titer Glo viability; log10 luminescence, per cent inhibition relative to cycloheximide control
- assay context: 72 h, relative to cycloheximide control, log10 luminescence; inhibitor
Provide only the numeric value, understood in %.

Reference set (3 entries):
| compound | quantity measured | measured number |
| --- | --- | --- |
| COc1ccc(O)c(C(=O)c2ccc(C(=O)O[C@@H]3CCCNC[C@H]3NC(=O)c3ccncc3)cc2)c1F [SJ000580951-1] | CMK %inh | 131.3 |
| CC(=O)O[C@H]1C[C@@H]2CC[C@@H]3[C@H](CC[C@@]4(C)[C@H]3C[C@H](N3CC[N+](C)(C)CC3)[C@@H]4OC(C)=O)[C@@]2(C)C[C@@H]1N1CC[N+](C)(C)CC1 [SJ000555714-1, PIPECURIUM BROMIDE] | CMK %inh | -9.103 |
| CN(C)CCCNc1nccc(-c2c(-c3ccc(F)cc3)nn3cc(C(F)(F)F)ccc23)n1 [SJ000573200-1, U14929/105/1] | CMK %inh | 6.318 |

The value of CMK %inh measured for the compound CC(C)(S)[C@@H](N)C(=O)O [SJ000285530-3, PENICILLAMINE] turned out to be -2.957

The value of CMK %inh measured for the compound COc1ccc2c(-c3ccnc(Nc4cccc(OC(F)(F)F)c4)n3)cnn2n1 [SJ000573232-1, U17838/93/4] turned out to be -2.18

The value of CMK %inh measured for the compound O=C1NC(=N[C@@H]2C[C@H]2c2ccccc2)S/C1=C\c1ccc2ncccc2c1 [SJ000581135-1] turned out to be -0.2461

The value of CMK %inh measured for the compound Nc1nc(-c2ccc(F)cc2)c(-c2ccc3ncccc3n2)s1 [SJ000573357-1, R5931/120/1] turned out to be -0.6603

The value of CMK %inh measured for the compound CC(C)c1[nH]nc2c1N=C(c1ccccc1Cl)c1cc([N+](=O)[O-])ccc1N2 [SJ000580955-1] turned out to be 2.501

The value of CMK %inh measured for the compound NS(=O)(=O)c1ccc(-c2ccc3c(NC(=O)C4CC4)n[nH]c3c2)cc1 [SJ000573140-1, VB100064-161A1] turned out to be -4.867

The value of CMK %inh measured for the compound NC(N)=NCCS[C@@H](CC(=O)O)C(=O)O [SJ000772425-1, GEMSA] turned out to be -1.464

The value of CMK %inh measured for the compound CCn1c(-c2nonc2N)nc2c(C#CC(C)(C)O)ncc(OCC3CCNCC3)c21 [SJ000573338-1, N3180-49-A1] turned out to be 1.889

The value of CMK %inh measured for the compound Cn1cc(C2=C(c3cn(C)c4cc(C(=O)O)ccc34)C(=O)NC2=O)c2ccccc21 [SJ000580970-1] turned out to be 35.03

The value of CMK %inh measured for the compound CNC(=O)c1cncc(/C=C/c2ccccc2Cl)c1 [SJ000573070-1, U12068/61/1] turned out to be 93.63

The value of CMK %inh measured for the compound Oc1c(Cl)cc(Cl)c(Cl)c1Cc1c(O)c(Cl)cc(Cl)c1Cl [SJ000285273-4, HEXACHLOROPHENE] turned out to be 117.7

The value of CMK %inh measured for the compound Cc1cc(-c2ccccn2)cc(C)c1/C=C/c1cncc(-c2nn[nH]n2)c1 [SJ000573354-1, U12068/128/1] turned out to be 0.3268
